target: hKir6.1[V65M]/hSUR2B (Homo sapiens, UniProt O60706+Q15842, V65M); experiment: Thallium flux assay, Kir6.1[V65M] stable cells; type: cell-based; details: hKir6.1[V65M]; KCOs at presumably maximal concentrations; compared with WT
Sequence (Q15842 whole entry V65M, one chain of several): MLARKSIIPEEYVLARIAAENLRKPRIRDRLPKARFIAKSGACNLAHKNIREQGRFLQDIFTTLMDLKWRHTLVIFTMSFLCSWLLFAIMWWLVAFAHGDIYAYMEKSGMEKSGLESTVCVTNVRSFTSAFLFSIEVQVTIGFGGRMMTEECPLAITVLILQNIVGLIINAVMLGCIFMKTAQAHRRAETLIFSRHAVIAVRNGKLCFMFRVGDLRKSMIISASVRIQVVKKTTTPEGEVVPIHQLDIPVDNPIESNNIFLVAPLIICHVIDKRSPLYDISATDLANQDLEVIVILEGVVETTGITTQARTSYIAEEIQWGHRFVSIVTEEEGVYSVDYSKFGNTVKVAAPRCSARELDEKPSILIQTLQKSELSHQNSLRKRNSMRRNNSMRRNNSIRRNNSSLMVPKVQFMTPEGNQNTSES
endpointName: activation of Tl influx by KCO

CC(N/C(=N\C#N)Nc1ccncc1)C(C)(C)C (stereo not shown) [pinacidil]
enhanced activation
CC1(C)Oc2ccc(C#N)cc2C(N2CCCC2=O)C1O (stereo not shown) [cromakalim]
enhanced activation
O=C(NCCO[N+](=O)[O-])c1cccnc1 [nicorandil]
measurable activation
CC1=NS(=O)(=O)c2cc(Cl)ccc2N1 [diazoxide]
measurable activation

###

target: WT hKir6.1/hSUR2B (Homo sapiens, UniProt O60706+Q15842); type: cell-based; details: WT; KCOs at presumably maximal concentrations
Sequence (Q15842 whole entry): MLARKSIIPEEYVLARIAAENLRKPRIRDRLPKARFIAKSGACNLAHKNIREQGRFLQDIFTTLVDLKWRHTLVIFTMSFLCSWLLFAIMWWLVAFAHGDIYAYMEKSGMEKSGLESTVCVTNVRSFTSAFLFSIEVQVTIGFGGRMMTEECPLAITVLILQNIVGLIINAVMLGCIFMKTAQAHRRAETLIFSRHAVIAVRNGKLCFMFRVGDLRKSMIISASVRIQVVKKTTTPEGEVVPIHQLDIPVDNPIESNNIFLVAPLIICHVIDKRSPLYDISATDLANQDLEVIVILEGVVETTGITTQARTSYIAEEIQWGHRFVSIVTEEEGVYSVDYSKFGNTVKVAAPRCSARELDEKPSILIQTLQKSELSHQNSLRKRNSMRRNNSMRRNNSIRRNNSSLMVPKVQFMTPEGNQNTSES
Sequence (O60706 1-1549 isoform O60706-2): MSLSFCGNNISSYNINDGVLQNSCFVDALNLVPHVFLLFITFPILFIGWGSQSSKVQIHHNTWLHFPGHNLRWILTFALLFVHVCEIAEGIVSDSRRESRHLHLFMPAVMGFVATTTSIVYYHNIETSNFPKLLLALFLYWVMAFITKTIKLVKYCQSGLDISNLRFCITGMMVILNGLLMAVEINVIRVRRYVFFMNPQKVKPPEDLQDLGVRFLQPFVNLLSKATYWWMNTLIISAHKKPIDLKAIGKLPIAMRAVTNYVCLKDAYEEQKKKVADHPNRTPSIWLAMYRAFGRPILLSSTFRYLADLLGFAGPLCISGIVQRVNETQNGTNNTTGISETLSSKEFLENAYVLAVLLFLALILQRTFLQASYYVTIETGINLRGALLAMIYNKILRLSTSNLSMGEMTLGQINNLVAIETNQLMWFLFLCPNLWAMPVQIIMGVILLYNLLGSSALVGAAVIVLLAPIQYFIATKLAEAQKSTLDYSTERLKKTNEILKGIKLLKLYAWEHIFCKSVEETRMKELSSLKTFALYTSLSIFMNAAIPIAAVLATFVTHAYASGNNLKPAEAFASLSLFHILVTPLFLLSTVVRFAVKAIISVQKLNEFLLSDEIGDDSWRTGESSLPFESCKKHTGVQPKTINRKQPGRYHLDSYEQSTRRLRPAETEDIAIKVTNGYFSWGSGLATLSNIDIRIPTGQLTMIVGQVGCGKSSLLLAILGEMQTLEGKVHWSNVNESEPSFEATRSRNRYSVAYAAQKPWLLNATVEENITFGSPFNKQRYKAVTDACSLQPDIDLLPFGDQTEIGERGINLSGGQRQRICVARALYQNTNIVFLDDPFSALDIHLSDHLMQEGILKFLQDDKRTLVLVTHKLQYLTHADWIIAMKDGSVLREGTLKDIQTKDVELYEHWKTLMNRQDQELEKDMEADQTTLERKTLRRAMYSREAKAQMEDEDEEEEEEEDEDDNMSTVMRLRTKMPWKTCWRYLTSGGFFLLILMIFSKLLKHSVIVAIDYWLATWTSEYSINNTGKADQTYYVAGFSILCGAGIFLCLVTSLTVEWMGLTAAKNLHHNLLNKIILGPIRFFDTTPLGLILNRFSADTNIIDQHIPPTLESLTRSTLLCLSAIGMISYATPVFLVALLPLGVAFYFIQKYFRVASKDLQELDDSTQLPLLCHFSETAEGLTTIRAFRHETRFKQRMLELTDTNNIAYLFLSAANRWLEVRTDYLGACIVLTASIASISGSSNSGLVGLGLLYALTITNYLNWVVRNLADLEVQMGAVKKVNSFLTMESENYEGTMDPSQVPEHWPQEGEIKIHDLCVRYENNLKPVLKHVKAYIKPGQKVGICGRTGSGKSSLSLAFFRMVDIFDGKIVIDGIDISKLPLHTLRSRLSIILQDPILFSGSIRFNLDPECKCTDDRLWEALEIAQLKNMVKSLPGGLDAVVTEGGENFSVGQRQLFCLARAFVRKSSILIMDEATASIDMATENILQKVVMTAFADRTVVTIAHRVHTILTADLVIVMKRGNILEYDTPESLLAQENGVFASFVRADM
endpointName: activation of Tl influx by KCO

CC(N/C(=N\C#N)Nc1ccncc1)C(C)(C)C (stereo not shown)
activated
CC1(C)Oc2ccc(C#N)cc2C(N2CCCC2=O)C1O (stereo not shown)
activated

Entry source: paper PMC10449099
